- Test system: all trypanosome species
- test_details: resazurin assay, summary over trypanosome species
- Format: cell-based, Trypanosoma
- condition_set: Trypanosoma, read-out: EC50 against all trypanosome species (range)
pEC50: −log10 of the molar value.
parameter_measured: pEC50

*Q* Supply recorded pEC50 for CC(C)CNC(=O)/C=C/c1ccc2c(c1)OCO2 [Compound 7, fagaramide] here.
*A* 4.46 to 4.96

###

- Tested on: T. b. brucei s427
- test_details: resazurin drug sensitivity assay, T. b. brucei s427 wild-type bloodstream forms
- Assay type: cell-based, Trypanosoma brucei brucei
- condition_set: Trypanosoma brucei, b = EC50 of control for 5, 6, 7; read-out: T. b. brucei s427 EC50
parameter_measured: pEC50
Convention used: pEC50 is expressed as -log10 of the molar concentration.

*Q* Consider the compound N=C(N)c1ccc(OCCCCCOc2ccc(C(=N)N)cc2)cc1 [PMD, pentamidine isethionate, reference compound] and give its recorded pEC50.
*A* 8.28
